Data credit: PubChem BioAssay

# assay.summary: Pseudomonas biofilm growth suppression – PAO1 strain, BacTiter-Glo luminescence, LB-PBS, primary screen (AID 1144)
# condition.set: P. aeruginosa PAO1 biofilm, 12 h, higher = more signal
experimental.readout: z-score
Give the figure by itself; no unit, no explanation.

Some solved cases for reference:
[[record]]
compound = "[N-]=[N+]=NCc1ccccc1[C@H]1OC(c2ccc(OCCCO)cc2)=N[C@@]1(Cc1ccccc1N=[N+]=[N-])C(=O)N1CCCCC1"
endpoint_value = -0.567

[[record]]
compound = "C[C@H]1ON(c2ccccc2)[C@@H](c2ccccc2)[C@@H]1C(=O)N1C(=O)OC[C@@H]1c1ccccc1"
endpoint_value = 0.0377

[[record]]
compound = "COC(=O)[C@@]1(Cc2ccccc2)[C@H]2c3cc(C(=O)N4CCCC4)n(Cc4ccc(OC(F)(F)F)cc4)c3C[C@H]2CN1C(=O)c1ccccc1"
endpoint_value = 0.0853

[[record]]
compound = "CC(C)(C)OC(=O)CC[C@]1(C(=O)N2CCCCC2)N=C(c2ccc(OCCCO)cc2)O[C@H]1c1ccccc1CN=[N+]=[N-]"
endpoint_value = -0.596

[[record]]
compound = "O=C1N(Cc2ccccc2)c2ccccc2[C@H]2OC(c3ccc(OCCCO)cc3)=N[C@@]12CCS(=O)(=O)c1ccccc1"
endpoint_value = -1.19


Quick note, z-score for O=C1CSC(c2cccc([N+](=O)[O-])c2)N1c1ccccc1 (configuration not stated) landed at -0.249

Quick note, z-score for `NC(=O)[C@H]1[C@@H]2C(=O)O[C@@H](c3ccccc3)[C@@H](c3ccccc3)N2[C@@H](c2ccc(O)cc2)[C@]12C(=O)Nc1ccc(C#CC3(O)CCCCCC3)cc12` landed at -0.947

Quick note, z-score for `NC(=O)[C@@H]1[C@H]2C(=O)O[C@H](c3ccccc3)[C@H](c3ccccc3)N2[C@H](c2ccccc2OCCO)[C@@]12C(=O)Nc1ccc(C#CCCO)cc12` landed at -0.663

Quick note, z-score for `CC(C)(C)OC(=O)CC[C@]1(C(=O)O)COC(c2ccc(OCCCO)cc2)=N1` landed at 0.178

Quick note, z-score for C=CCC(OC(C)=O)[C@@H]1[C@@H](N(Cc2ccc(-c3cccc(C(F)(F)F)c3)o2)C(=O)c2cccc3ccccc23)c2cc(OCCCO)ccc2N1C(=O)c1ccc(-c2ccccc2)cc1 (some centres not stated) landed at 0.595

Quick note, z-score for `C=C(/C(=C/C[C@@H](OC(=O)c1ccncc1)c1ccccc1OCCO)c1cnc2ccccc2c1)C(C)C` landed at 0.556

Quick note, z-score for `CC(C)CNC(=O)[C@@]1(C)c2ccccc2C(=O)N(Cc2ccccc2)[C@H]1c1ccc(CO)cc1` landed at 0.789

Quick note, z-score for `CCCNC(=O)[C@@]1(Sc2ccc(C)cc2)CC(=O)N(Cc2ccccc2)[C@@H]1c1ccc(CO)cc1I` landed at 0.029

* * *

# assay.summary: basal CRE-LacZ reporter activity in PC12 – cell-based, unstimulated, primary screen (AID 1145)
# condition.set: no forskolin, luminescence, 4.5 h, higher = more signal, called active from +8 up or from −8 down
The source made the active and inactive calls.
experimental.readout: z-score

[[record]]
molecule = "C=C[C@@H](O)[C@H]1CC(c2ccccc2)=NO1"
experimental_readout = "z-score"
endpoint_value = "1.03 (inactive)"

[[record]]
molecule = "Cc1ccc(S[C@]2(C(=O)O)CC(=O)N(Cc3ccccc3C(F)(F)F)[C@@H]2c2ccc(CO)cc2)cc1"
experimental_readout = "z-score"
endpoint_value = "0.0279 (inactive)"

[[record]]
molecule = "OCc1ccc(-c2cc[n+](Cc3cccc(OC(F)(F)F)c3)cc2)cc1"
experimental_readout = "z-score"
endpoint_value = "-0.374 (inactive)"

[[record]]
molecule = "Cc1ccc(S[C@]2(C(=O)O)CC(=O)N(C3CCCCC3)[C@@H]2c2ccc(CO)cc2)cc1"
experimental_readout = "z-score"
endpoint_value = "-0.116 (inactive)"

[[record]]
molecule = "[N-]=[N+]=NCc1ccccc1[C@H]1OC(c2ccc(OCCCO)cc2)=N[C@@]1(Cc1ccccc1N=[N+]=[N-])C(=O)N1CCCCC1"
experimental_readout = "z-score"
endpoint_value = "0.236 (inactive)"

[[record]]
molecule = "COC(=O)[C@@]1(Cc2ccccc2)[C@H]2c3cc(C(=O)N4CCCC4)n(Cc4ccccc4)c3C[C@H]2CN1C(=O)c1ccccc1"
experimental_readout = "z-score"
endpoint_value = "1.74 (inactive)"

[[record]]
molecule = "C=CCC(OC(C)=O)[C@@H]1[C@@H](N(Cc2ccc(-c3ccccc3)cc2)C(=O)c2cccc3ccccc23)c2cc(OCCCO)ccc2N1C(=O)c1ccc2ccccc2n1 (stereo partly drawn)"
experimental_readout = "z-score"
endpoint_value = "1.76 (inactive)"

[[record]]
molecule = "CC(C)CNC(=O)[C@@]1(c2ccc([N+](=O)[O-])cc2)CC(=O)N(C(C)C)[C@@H]1c1ccc(CO)cc1"
experimental_readout = "z-score"
endpoint_value = "-1.06 (inactive)"


Now take the following molecule into account.
Quick note, z-score for `[N-]=[N+]=Nc1ccccc1[C@H]1OC(c2ccc(OCCCO)cc2)=N[C@@]1(Cc1ccccc1)C(=O)NCc1ccccc1` landed at -0.16 (inactive)

* * *

Catalogue of composite z-score values
# assay.summary: probe aNOTCH2 binding on compound microarray – biochemical, small-molecule microarray, 635/667 nm fluorescence, primary screen (AID 1121);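 note: score merges feature fluorescence read at 667 nm with its signal to noise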
# condition.set: higher = more signal
Give the figure by itself; no unit, no explanation.

Some solved cases for reference:
[[record]]
molecule = "COCCOC(=O)N1C(=O)[C@@]2(c3cc(C#CCCO)ccc31)[C@H](c1ccc(OCCO)cc1)N1[C@H](c3ccccc3)[C@H](c3ccccc3)OC(=O)[C@H]1[C@@H]2C(=O)N1CCc2cc(OC)c(OC)cc2C1"
endpoint_value = -0.0731

[[record]]
molecule = "COC(=O)[C@@]1(Cc2ccccc2)[C@H]2c3cc(C(=O)N4CCCC4)n(Cc4ccc(OC(F)(F)F)cc4)c3C[C@H]2CN1C(=O)c1ccccc1"
endpoint_value = 0.509

[[record]]
molecule = "COCCCNC(=O)[C@@]1(Cc2ccccc2)COC(c2ccc(OCCCO)cc2)=N1"
endpoint_value = -0.0307

[[record]]
molecule = "C[N+](C)(C)CCCCCCNC(=O)[C@H]1C[C@H]2C(=O)N3CCC[C@H]3C(=O)N2[C@H]1c1cccc(OCCO)c1"
endpoint_value = -0.0135

[[record]]
molecule = "C[N+](C)(C)CCCC[C@@H]1NC(=O)[C@H]2C[C@@H](C(=O)NCCCCCCN)[C@@H](c3cccc(OCCO)c3)N2C1=O"
endpoint_value = 0.198


Quick note, composite z-score for `O=C1C[C@@](C(=O)O)(c2ccc([N+](=O)[O-])cc2)[C@@H](c2ccc(CO)cc2)N1CC12CC3CC(CC(C3)C1)C2` landed at 0.0362

Quick note, composite z-score for `COC(=O)[C@@]1(Cc2ccc(OC)cc2)[C@H]2c3cc(C(=O)N4CCCC4)n(CCc4ccc(O)c(OC)c4)c3C[C@H]2CN1C(=O)c1ccccc1` landed at 0.12

Quick note, composite z-score for `CN(C)CCCC[C@@H]1NC(=O)[C@H]2C[C@@H](C(=O)NCCCCCCNC(=O)CS)[C@@H](c3ccc(O)cc3)N2C1=O` landed at -0.14

Quick note, composite z-score for `COCC(=C=CC[C@@H](O)c1ccccc1OCCO)C[C@@H](O)COCc1ccccc1` landed at 0.365

Quick note, composite z-score for O=C1NC(=O)C2C1C=CC(C(O)c1ccc3c(c1)OCO3)N2Nc1ccc(Cl)cc1Cl (stereo not given) landed at -0.063

Quick note, composite z-score for `CCC[C@@H]1C[C@@]1(CCC)[C@@H](NC(=O)c1cccs1)c1ccc(Cl)cc1` landed at -0.0617

Quick note, composite z-score for `O=C1O[C@H](c2ccccc2)[C@H](c2ccccc2)N2[C@H]1[C@@H](C(=O)N1CCCCCCC1)[C@]1(C(=O)Nc3ccc(C#CCCO)cc31)[C@H]2c1ccc(OCCO)cc1` landed at 1.12

Quick note, composite z-score for `C=CCOC(=O)[C@H]1[C@@H]2C(=O)O[C@@H](c3ccccc3)[C@@H](c3ccccc3)N2[C@@H](c2ccc(OCCOC(=O)[C@H]3C[C@H]4C(=O)N[C@@H](CCCCN(C)C)C(=O)N4[C@H]3c3ccc(O)cc3)cc2)[C@]12C(=O)Nc1ccccc12` landed at -0.185

Quick note, composite z-score for `C=CCOC(=O)[C@@H]1[C@H]2C(=O)O[C@H](c3ccccc3)[C@H](c3ccccc3)N2[C@H](c2ccc(OCCOC(=O)[C@@H]3C[C@@H]4C(=O)N5CCC[C@H]5C(=O)N4[C@@H]3c3cccc(OCCO)c3)cc2)[C@@]12C(=O)Nc1ccc(I)cc12` landed at -0.101

* * *

Catalogue of composite z-score values
# assay.summary: probe aShh binding to arrayed compounds – biochemical, biotinylated probe, 635/667 nm fluorescence, primary screen (AID 1114);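 note: probe is biotin-labelled aShh protein from a stem cell growth factor screen; measures binding of labelled protein to compounds printed on the slide; score merges feature fluorescence at 667 nm with signal-to-noise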
# condition.set: small-molecule microarray, higher = more signal
Give the figure by itself; no unit, no explanation.

[[record]]
compound = "O=C1N(CCS(=O)(=O)c2ccccc2)Cc2ccccc2C[C@@]12COC(c1ccc(OCCCO)cc1)=N2"
endpoint_value = -0.0858

[[record]]
compound = "N#Cc1ccc(NN2C(C(O)c3ccccc3)C=CC3C(=O)N(c4ccccc4)C(=O)C32)cc1 (stereo not drawn)"
endpoint_value = -0.102

[[record]]
compound = "COC(=O)C(CC#Cc1ccc2c(c1)[C@]1(C(=O)N2)[C@H](c2ccccc2OCCO)N2[C@H](c3ccccc3)[C@H](c3ccccc3)OC(=O)[C@H]2[C@@H]1C(=O)Nc1nc2ccccc2s1)C(=O)OC"
endpoint_value = 0.233


Quick note, composite z-score for `C=CCN1C(=O)[C@@]2(O[C@@H](CCn3cc([C@H](O)c4ccccc4)nn3)[C@H]([Si](C)(C)c3ccc(OC)cc3)[C@H]2C)c2cc(NC(=O)c3ccc(OC)cc3)ccc21` landed at 0.0815

Quick note, composite z-score for `COC(=O)[C@@]1(Cc2ccc(F)cc2)[C@@H]2[C@@H](CC(=O)[C@H]2CC(=O)C(=O)N2CCCC2)CN1C(=O)c1ccccc1` landed at 0.338

Quick note, composite z-score for `C=C(/C(=C/C[C@@H](OC(=O)c1ccncc1)c1ccccc1OCCO)c1cnc2ccccc2c1)C(C)C` landed at -0.195

Quick note, composite z-score for `COCCOC(=O)N1C(=O)[C@@]2(c3ccccc31)[C@H](c1ccc(OCCO)cc1)N1[C@H](c3ccccc3)[C@H](c3ccccc3)OC(=O)[C@H]1[C@@H]2C(=O)NC[C@H](O)c1ccccc1` landed at -0.141

Quick note, composite z-score for COC(=O)c1ccc(OC)c(/C=C\CC(CCc2ccccc2)OC(C)=O)c1 (stereo not drawn) landed at -0.214
